- Organism: Rattus norvegicus
- methodSummary: Open TG-GATES - Regimen: Daily Repeat
- Type: toxicity, organism-based, Sprague-Dawley
- Design: regimen Daily Repeat, gender Male, age 6 weeks
- experimentalParameters: in vivo, po, 0 mg/kg, […], tissue Plasma, route gavage, dose level Control, time 14 day
quantityMeasured: DBIL (mg/dL)
# number only, unit mg/dL dropped from output

compound	assayResult
COC(=O)C1=C(C)NC(C)=C(C(=O)OC)C1c1ccccc1[N+](=O)[O-]	0.012
CCOc1ccc(NC(C)=O)cc1	0.024
NC1=NC(=O)C(c2ccccc2)O1 (stereo not given)	0.012

input: Which DBIL is listed for "CCCc1cc(=O)[nH]c(=S)[nH]1" ?
output: 0.006

---

- Species on record: Rattus norvegicus
- methodSummary: Open TG-GATES - Regimen: Daily Repeat
- Assay type: toxicity, organism-based, Sprague-Dawley
- Set-up: regimen Daily Repeat, gender Male, age 6 weeks
- experimentalParameters: in vivo, po, 100 mg/kg, […], tissue Plasma, route gavage, dose level Low, time 14 day
Reported CRE is given for each of the following compounds.
# number only, unit mg/dL dropped from output

CNC(=C[N+](=O)[O-])NCCSCc1ccc(CN(C)C)o1 0.5

input: Which CRE is listed for "COC(=O)C1=C(C)NC(C)=C(C(=O)OC)C1c1ccccc1[N+](=O)[O-]" ?
output: 0.2

input: Which CRE is listed for "CCOc1ccc(NC(C)=O)cc1" ?
output: 0.2

input: Which CRE is listed for "Cc1nnc2n1-c1ccc(Cl)cc1C(c1ccccc1Cl)=NC2" ?
output: 0.2

input: Which CRE is listed for "CN/C(=N/CCSCc1nc[nH]c1C)NC#N" ?
output: 0.4

input: Which CRE is listed for "O=C(OC[C@H]1O[C@@H](OC(=O)c2cc(O)c(O)c(OC(=O)c3cc(O)c(O)c(O)c3)c2)[C@H](OC(=O)c2cc(O)c(O)c(OC(=O)c3cc(O)c(O)c(O)c3)c2)[C@@H](OC(=O)c2cc(O)c(O)c(OC(=O)c3cc(O)c(O)c(O)c3)c2)[C@@H]1OC(=O)c1cc(O)c(O)c(OC(=O)c2cc(O)c(O)c(O)c2)c1)c1cc(O)c(O)c(OC(=O)c2cc(O)c(O)c(O)c2)c1" ?
output: 0.6

---

- Species: Rattus norvegicus
- methodSummary: Open TG-GATES - Regimen: Daily Repeat
- Type: toxicity, organism-based, Sprague-Dawley
- Parameters: regimen Daily Repeat, gender Male, age 6 weeks
- experimentalParameters: in vivo, po, 0 mg/kg, […], tissue Plasma, route gavage, dose level Control, time 28 day
Reported Cl is given for each of the following compounds.
# number only, unit meq/L dropped from output

Look over these answered cases.
compound	Cl (meq/L)
CN1C(=O)CCS(=O)(=O)C1c1ccc(Cl)cc1 (stereo not drawn)	106.2
Nc1c2c(nc3ccccc13)CCCC2	105.2
Brc1ccccc1	104

input: Which Cl is listed for "Cc1nnc2n1-c1ccc(Cl)cc1C(c1ccccc1Cl)=NC2" ?
output: 105.8

input: Which Cl is listed for "CNC(=C[N+](=O)[O-])NCCSCc1ccc(CN(C)C)o1" ?
output: 103

input: Which Cl is listed for "COC(=O)C1=C(C)NC(C)=C(C(=O)OC)C1c1ccccc1[N+](=O)[O-]" ?
output: 104.4

input: Which Cl is listed for CN(C)CCC(c1ccc(Cl)cc1)c1ccccn1 (stereo not drawn) ?
output: 106.8

input: Which Cl is listed for NC1=NC(=O)C(c2ccccc2)O1 (stereo not drawn) ?
output: 104

input: Which Cl is listed for "CN/C(=N/CCSCc1nc[nH]c1C)NC#N" ?
output: 102.4

input: Which Cl is listed for "CCCc1cc(=O)[nH]c(=S)[nH]1" ?
output: 106.8

input: Which Cl is listed for "CC(C)NNC(=O)c1ccncc1" ?
output: 105.2

input: Which Cl is listed for "O=C(OC[C@H]1O[C@@H](OC(=O)c2cc(O)c(O)c(OC(=O)c3cc(O)c(O)c(O)c3)c2)[C@H](OC(=O)c2cc(O)c(O)c(OC(=O)c3cc(O)c(O)c(O)c3)c2)[C@@H](OC(=O)c2cc(O)c(O)c(OC(=O)c3cc(O)c(O)c(O)c3)c2)[C@@H]1OC(=O)c1cc(O)c(O)c(OC(=O)c2cc(O)c(O)c(O)c2)c1)c1cc(O)c(O)c(OC(=O)c2cc(O)c(O)c(O)c2)c1" ?
output: 105.4

input: Which Cl is listed for "CCOc1ccc(NC(C)=O)cc1" ?
output: 104.8

---

- Species on record: Rattus norvegicus
- methodSummary: Open TG-GATES - Regimen: Daily Repeat
- Assay type: toxicity, organism-based, Sprague-Dawley
- Parameters: regimen Daily Repeat, gender Male, age 6 weeks
- experimentalParameters: in vivo, po, 0 mg/kg, […], route gavage, dose level Control, time 7 day
Reported TERMINAL_BW is given for each of the following compounds.
# number only, unit g dropped from output

compound	quantityMeasured	assayResult
Cc1nnc2n1-c1ccc(Cl)cc1C(c1ccccc1Cl)=NC2	TERMINAL_BW	259.3
Brc1ccccc1	TERMINAL_BW	242.1
CC(C)NNC(=O)c1ccncc1	TERMINAL_BW	239.8

input: Which TERMINAL_BW is listed for NC1=NC(=O)C(c2ccccc2)O1 (stereo unspecified) ?
output: 274.2

input: Which TERMINAL_BW is listed for CN(C)CCC(c1ccc(Cl)cc1)c1ccccn1 (stereo unspecified) ?
output: 265.1

input: Which TERMINAL_BW is listed for "CCOc1ccc(NC(C)=O)cc1" ?
output: 272.4

---

- Species: Rattus norvegicus
- methodSummary: Open TG-GATES - Regimen: Daily Repeat
- Format: toxicity, organism-based, Sprague-Dawley
- Set-up: regimen Daily Repeat, gender Male, age 6 weeks
- experimentalParameters: in vivo, po, 100 mg/kg, 72 h, tissue Plasma, route gavage, dose level Low, time 3 day
quantityMeasured: BUN (mg/dL)
# number only, unit mg/dL dropped from output

Look over these answered cases.
molecule	unitText	assayResult
O=C(OC[C@H]1O[C@@H](OC(=O)c2cc(O)c(O)c(OC(=O)c3cc(O)c(O)c(O)c3)c2)[C@H](OC(=O)c2cc(O)c(O)c(OC(=O)c3cc(O)c(O)c(O)c3)c2)[C@@H](OC(=O)c2cc(O)c(O)c(OC(=O)c3cc(O)c(O)c(O)c3)c2)[C@@H]1OC(=O)c1cc(O)c(O)c(OC(=O)c2cc(O)c(O)c(O)c2)c1)c1cc(O)c(O)c(OC(=O)c2cc(O)c(O)c(O)c2)c1 [TANNIC ACID]	mg/dL	18.8
COC(=O)C1=C(C)NC(C)=C(C(=O)OC)C1c1ccccc1[N+](=O)[O-] [NIFEDIPINE]	mg/dL	15
CCOc1ccc(NC(C)=O)cc1 [PHENACETIN]	mg/dL	13

input: Which BUN is listed for CNC(=C[N+](=O)[O-])NCCSCc1ccc(CN(C)C)o1 [RANITIDINE] ?
output: 15.6

input: Which BUN is listed for Cc1nnc2n1-c1ccc(Cl)cc1C(c1ccccc1Cl)=NC2 [TRIAZOLAM] ?
output: 14.2

input: Which BUN is listed for CN/C(=N/CCSCc1nc[nH]c1C)NC#N [CIMETIDINE] ?
output: 14.8

---

Reported KIDNEY_L is given for each of the following compounds.
- Species: Rattus norvegicus
- methodSummary: Open TG-GATES - Regimen: Daily Repeat
- Format: toxicity, organism-based, Sprague-Dawley
- Design: regimen Daily Repeat, gender Male, age 6 weeks
- experimentalParameters: in vivo, po, 1000 mg/kg, […], tissue Kidney, route gavage, dose level High, time 14 day
# number only, unit g dropped from output

compound	KIDNEY_L, g
Cc1nnc2n1-c1ccc(Cl)cc1C(c1ccccc1Cl)=NC2 [TRIAZOLAM]	1.3
CN/C(=N/CCSCc1nc[nH]c1C)NC#N [CIMETIDINE]	1.2

input: Which KIDNEY_L is listed for CNC(=C[N+](=O)[O-])NCCSCc1ccc(CN(C)C)o1 [RANITIDINE] ?
output: 1.2

---

- Organism: Rattus norvegicus
- methodSummary: Open TG-GATES - Regimen: Single
- Format: toxicity, organism-based, Sprague-Dawley
- Set-up: regimen Single, gender Male, age 6 weeks
- experimentalParameters: in vivo, po, 100 mg/kg, 24 h, tissue Blood, route gavage, dose level Low
Reported Eos is given for each of the following compounds.
# number only, unit % dropped from output

COC(=O)C1=C(C)NC(C)=C(C(=O)OC)C1c1ccccc1[N+](=O)[O-] 1
O=C(OC[C@H]1O[C@@H](OC(=O)c2cc(O)c(O)c(OC(=O)c3cc(O)c(O)c(O)c3)c2)[C@H](OC(=O)c2cc(O)c(O)c(OC(=O)c3cc(O)c(O)c(O)c3)c2)[C@@H](OC(=O)c2cc(O)c(O)c(OC(=O)c3cc(O)c(O)c(O)c3)c2)[C@@H]1OC(=O)c1cc(O)c(O)c(OC(=O)c2cc(O)c(O)c(O)c2)c1)c1cc(O)c(O)c(OC(=O)c2cc(O)c(O)c(O)c2)c1 1
CNC(=C[N+](=O)[O-])NCCSCc1ccc(CN(C)C)o1 1
CN/C(=N/CCSCc1nc[nH]c1C)NC#N 1

# next compound below
input: Which Eos is listed for "Cc1nnc2n1-c1ccc(Cl)cc1C(c1ccccc1Cl)=NC2" ?
output: 1
